Ki: recorded values
- Target or system: α1 adrenoceptor
- Procedure details: Radioligand binding assay, α1 adrenoceptor ([3H]prazosin, rat cerebral cortex membranes)
- Condition description: rat cerebral cortex membranes, 0.2 nM [3H]prazosin, hydrochloride salts; read-out: Ki ± SEM (α1)

Compound: C[C@@H]1CN(c2cccc3nc[nH]c23)CCN1CCCCN1C(=O)C2CCCN2C1=O (mixture of isomers)
Target or system: α1 adrenoceptor
Measurement unit: nM
Result modifier: >
Ki: 1000
--
Compound: C[C@H]1CN(c2cccc3ccccc23)CCN1CCCCN1CC(=O)N2CCCC2C1=O (mixture of isomers)
Target or system: α1 adrenoceptor
Measurement unit: nM
Result modifier: =
Ki: 34.4
--
Compound: C[C@H]1CN(c2cccc3nc[nH]c23)CCN1CCCCN1C(=O)C2CCCN2C1=O (mixture of isomers) [(r)]
Target or system: α1 adrenoceptor
Measurement unit: nM
Result modifier: >
Ki: 1000
--
Compound: C[C@@H]1CN(c2cccc3ccccc23)CCN1CN1CC(=O)N2CCC[C@@H]2C1=O
Target or system: α1 adrenoceptor
Measurement unit: nM
Result modifier: >
Ki: 1000
--
Compound: C[C@@H]1CN(c2cccc3ccccc23)CCN1CN1CC(=O)N2CCC[C@H]2C1=O [(e)]
Target or system: α1 adrenoceptor
Measurement unit: nM
Result modifier: >
Ki: 1000
--
Compound: O=C1C2CCCN2C(=O)CN1CCCCN1CCN(c2cccc3c2OCCCO3)CC1 (stereo not shown)
Target or system: α1 adrenoceptor
Measurement unit: nM
Result modifier: =
Ki: 348
--
Compound: O=C1C2CCCN2C(=O)CN1CCCCN1CCN(c2cccc3ccccc23)CC1 (stereo not shown)
Target or system: α1 adrenoceptor
Measurement unit: nM
Result modifier: =
Ki: 8
--
Compound: C[C@@H]1CN(c2cccc3ccccc23)CCN1CCCCN1CC(=O)N2CCCC2C1=O (mixture of isomers)
Target or system: α1 adrenoceptor
Measurement unit: nM
Result modifier: =
Ki: 20.1
--
Compound: C[C@H]1CN(c2cccc3ccccc23)CCN1CN1CC(=O)N2CCC[C@H]2C1=O
Target or system: α1 adrenoceptor
Measurement unit: nM
Result modifier: >
Ki: 1000
--
Compound: C[C@H]1CN(c2cccc3ccccc23)CCN1CN1CC(=O)N2CCC[C@@H]2C1=O
Target or system: α1 adrenoceptor
Measurement unit: nM
Result modifier: >
Ki: 1000

---

Overview of reported pKi across a group of compounds:
- Target or system: 5-HT1A receptor (Rattus norvegicus, UniProt P19327)
- Construct: The cerebral cortex was homogenized in 10 volumes of ice-cold Tris buffer; from tissue; host or cells: rat cerebral cortex membranes
- Sequence (P19327 whole entry): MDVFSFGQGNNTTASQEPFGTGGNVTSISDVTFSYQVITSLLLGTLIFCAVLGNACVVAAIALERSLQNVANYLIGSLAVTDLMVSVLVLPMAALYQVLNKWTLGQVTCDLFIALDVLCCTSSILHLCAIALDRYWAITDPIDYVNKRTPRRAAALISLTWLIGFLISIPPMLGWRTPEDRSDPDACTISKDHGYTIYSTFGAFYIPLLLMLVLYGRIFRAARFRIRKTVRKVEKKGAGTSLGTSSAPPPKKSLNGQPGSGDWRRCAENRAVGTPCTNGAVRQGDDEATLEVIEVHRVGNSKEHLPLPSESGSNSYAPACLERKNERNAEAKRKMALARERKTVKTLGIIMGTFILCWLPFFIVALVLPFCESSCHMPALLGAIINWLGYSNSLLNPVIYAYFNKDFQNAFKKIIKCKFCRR
- Procedure details: Radioligand binding assay, 5-HT1A receptor ([3H]-8-OH-DPAT, rat cerebral cortex membranes)
- Condition description: rat cerebral cortex membranes, 0.6 nM [3H]-8-OH-DPAT, hydrochloride salts; read-out: Ki ± SEM (5-HT1A)
pKi: −log10 of the molar value.

Compound: C[C@@H]1CN(c2cccc3ccccc23)CCN1CN1CC(=O)N2CCC[C@H]2C1=O [(e)]
pKi: 8.20

Compound: C[C@@H]1CN(c2cccc3ccccc23)CCN1CCCCN1CC(=O)N2CCCC2C1=O (mixture of isomers) [(a)]
pKi: 8.38

Compound: O=C1C2CCCN2C(=O)CN1CCCCN1CCN(c2cccc3ccccc23)CC1 (centres unmarked) [Compound (g)]
pKi: 9.30

Compound: C[C@H]1CN(c2cccc3ccccc23)CCN1CN1CC(=O)N2CCC[C@H]2C1=O [(d)]
pKi: 8.60

Compound: O=C1C2CCCN2C(=O)CN1CCCCN1CCN(c2cccc3c2OCCCO3)CC1 (centres unmarked) [Compound (h)]
pKi: 8.51

Compound: C[C@@H]1CN(c2cccc3ccccc23)CCN1CN1CC(=O)N2CCC[C@@H]2C1=O [(c)]
pKi: 8.02

Compound: C[C@H]1CN(c2ccccc2)CCN1CCCCN1C(=O)C2CCCN2C1=O (mixture of isomers) [(q)]
pKi: 7.66

Compound: C[C@H]1CN(c2cccc3nc[nH]c23)CCN1CCCCN1C(=O)C2CCCN2C1=O (mixture of isomers) [(r)]
pKi: 8.39

Compound: CC[C@@H]1CN(c2cccc3ccccc23)CCN1CCCCN1C(=O)C2CCCN2C1=O (mixture of isomers) [(l)]
pKi: 8.62

Compound: CC[C@@H]1CN(c2cccc(OC)c2)CCN1CCCCN1C(=O)C2CCCN2C1=O (mixture of isomers) [(o)]
pKi: 7.68

Compound: C[C@H]1CN(c2cccc3ccccc23)CCN1CN1CC(=O)N2CCC[C@@H]2C1=O [(f)]
pKi: 8.19

Compound: C[C@H]1CN(c2cccc3ccoc23)CCN1CCCN1C(=O)C2CCCN2C1=O (mixture of isomers) [(k)]
pKi: 8.17

Compound: COc1cccc(N2CCN(CCCN3C(=O)C4CCCN4C3=O)[C@@H](C)C2)c1 (mixture of isomers) [(j)]
pKi: 7.66

Compound: C[C@@H]1CN(c2cccc3nc[nH]c23)CCN1CCCCN1C(=O)C2CCCN2C1=O (mixture of isomers) [(m)]
pKi: 8.64

Compound: C[C@H]1CN(c2cccc3ccoc23)CCN1CCCCN1C(=O)[C@@H]2CCCN2C1=O [(n)]
pKi: 8.80

Compound: C[C@@H]1CN(c2cccc(Cl)c2)CCN1CCCN1C(=O)C2CCCN2C1=O (mixture of isomers) [(i)]
pKi: 7.93

Compound: C[C@H]1CN(c2cccc3ccccc23)CCN1CCCCN1CC(=O)N2CCCC2C1=O (mixture of isomers) [(b)]
pKi: 7.82
